Entry source: patent EP4768499A1

Each record here notes measured Caco2 Papp (10^-6 cm/sec).
# Tested on: Caco-2 cells
# Experiment: Membrane permeability test using Caco-2 cells with preincubation
# Format: in vitro ADME
# Measurement conditions: Caco-2 cells, preincubation 20 to 24 hours; apical FaSSIF/HBSS 1% DMSO pH 6.0, basal HBSS 4% BSA pH 7.4; basal sample at 180 minutes
Starred links: 1 amine or outer side, 2 acyl side, 3 side chain; linkers in the order of their positions; H or OH if unused. Positions of bridges follow the written chain, without caps; N, C: chain ends. Non-standard residues stand in square brackets, D forms with d. Residues, ends and D or L forms follow the SMILES beside them. *: point of attachment. NMedβ3hAla = C[C@H](CC(=O)[*:2])N(C)[*:1]; NMeF = CN[C@@H](Cc1ccccc1)C(=O)O; NMeI = CC[C@H](C)[C@H](NC)C(=O)O; NMeT = CN[C@H](C(=O)O)[C@@H](C)O; hPhe = N[C@@H](CCc1ccccc1)C(=O)O; NMeβAla = CN(CCC(=O)[*:2])[*:1]; NMeD = CN[C@@H](CC(=O)O)C(=O)O; NMeL = CN[C@@H](CC(C)C)C(=O)O; dNMeV = CN[C@@H](C(=O)O)C(C)C; NMeV = CN[C@H](C(=O)O)C(C)C; d(β3hA) = C[C@@H](N)CC(=O)O; NMeAbu = CC[C@H](NC)C(=O)O; NMeA = CN[C@@H](C)C(=O)O; Piperidide = C1CCN(*)CC1; Abu = CC[C@H](N)C(=O)O; NBuGly = CCCCNCC(=O)O; Sar = CNCC(=O)O; tBu = CC(C)(C)*
Recorded metric: Caco2 Papp (10^-6 cm/sec)

molecule="CC[C@@H]1NC(=O)[C@H](CC(C)C)N(C)C(=O)[C@H]([C@@H](C)CC)NC(=O)[C@H](CC(C)C)N(C)C(=O)C[C@@H](C)NC(=O)[C@H](C(C)C)N(C)C(=O)[C@H](CC(C)C)NC(=O)[C@H](CC)N(C)C(=O)[C@H](Cc2ccccc2)N(C)C(=O)[C@@H]2CCCN2C(=O)[C@H](CC(C)C)NC(=O)[C@H]([C@@H](C)O)N(C)C(=O)[C@H](CC(C)C)N(C)C1=O [pd135] (cyclo([Abu][NMeL][NMeT]LP[NMeF][NMeAbu]L[NMeV][d(β3hA)][NMeL]I[NMeL]))" measured_result="1.95 10^-6 cm/sec"
molecule="CC[C@H]1C(=O)N[C@@H](C(C)C)C(=O)N[C@H](C(=O)N2CCCCC2)CC(=O)N(C)[C@H](C(C)C)C(=O)N(C)[C@@H](Cc2ccccc2)C(=O)N[C@@H](CC(C)C)C(=O)N(C)CC(=O)N[C@@H](CC(C)C)C(=O)N[C@@H]([C@@H](C)O)C(=O)N(C)[C@@H](CC(C)C)C(=O)N(C)[C@@H](C(C)C)C(=O)N[C@@H](C)C(=O)N[C@@H](COC(C)(C)C)C(=O)N(C)[C@@H](Cc2ccccc2)C(=O)N1C [pd020] ([dNMeV][NMeF]L[Sar]LT[NMeL][NMeV]AS(tBu)[NMeF][NMeAbu]VD-Piperidide; lactam N-14)" measured_result="<0.11 10^-6 cm/sec"
molecule="CC[C@@H]1NC(=O)[C@H](CC(C)C)N(C)C(=O)[C@H]([C@@H](C)CC)NC(=O)CN(C)C(=O)C[C@@H](C)NC(=O)[C@H](C(C)C)N(C)C(=O)[C@H](COC(C)(C)C)NC(=O)[C@H](CC(C)C)N(C)C(=O)[C@H](C)NC(=O)[C@H](Cc2ccccc2)N(C)C(=O)[C@H](CC(C)C)NC(=O)CN(C)C(=O)[C@H]([C@@H](C)O)NC(=O)[C@H](CC(C)C)N(C)C1=O [pd010] (cyclo(A[NMeL]S(tBu)[NMeV][d(β3hA)][Sar]I[NMeL][Abu][NMeL]T[Sar]L[NMeF]))" measured_result="0.72 10^-6 cm/sec"
molecule="CC[C@H](C)[C@H]1C(=O)N[C@@H](CC(C)C)C(=O)N(C)[C@@H](CC(C)C)C(=O)N(C)[C@@H](C(C)C)C(=O)N(C)[C@@H](C)C(=O)N[C@@H]([C@@H](C)O)C(=O)N(C)[C@@H](CC(C)C)C(=O)N[C@H](C)CC(=O)N(C)CCC(=O)N[C@@H](CCc2ccccc2)C(=O)N(C)[C@@H](CC(C)C)C(=O)N2CCC[C@H]2C(=O)N(C)[C@@H](Cc2ccccc2)C(=O)N(C)[C@@H](C)C(=O)N1C [pd060] (cyclo(L[NMeL][NMeV][NMeA]T[NMeL][d(β3hA)][NMeβAla][hPhe][NMeL]P[NMeF][NMeA][NMeI]))" measured_result="0.63 10^-6 cm/sec"
molecule="CCCCN1CC(=O)N(C)[C@@H](CC)C(=O)N[C@@H](CC(C)C)C(=O)N[C@H](C(=O)N2CCCCC2)CC(=O)N(C)[C@@H](C)C(=O)N[C@@H]([C@@H](C)CC)C(=O)N(C)[C@@H](Cc2ccccc2)C(=O)N(C)[C@@H](CC(C)C)C(=O)N[C@@H](C(C)C)C(=O)N(C)CC(=O)N[C@@H](CC(C)C)C(=O)N(C)[C@@H](Cc2ccccc2)C(=O)N(C)[C@@H](C)C(=O)N[C@@H](CC(C)C)C1=O [pd018] ([NMeA]I[NMeF][NMeL]V[Sar]L[NMeF][NMeA]L[NBuGly][NMeAbu]LD-Piperidide; lactam N-14)" measured_result="0.11 10^-6 cm/sec"
molecule="CC[C@H](C)[C@@H]1NC(=O)[C@H](CC(C)C)N(C)C(=O)[C@H](CC(C)C)NC(=O)[C@H](C)N(C)C(=O)C[C@@H](C(=O)N2CCCCC2)N(C)C(=O)[C@H](C)N(C)C(=O)[C@H](CC(C)C)NC(=O)[C@H](C(C)C)N(C)C(=O)[C@H](CC(C)C)N(C)C(=O)CNC(=O)[C@H]([C@@H](C)CC)N(C)C(=O)[C@H](Cc2ccccc2)N(C)C(=O)[C@H](C)NC(=O)[C@H](Cc2ccccc2)N(C)C1=O [pd079] ([NMeA]L[NMeL]I[NMeF]A[NMeF][NMeI]G[NMeL][NMeV]L[NMeA][NMeD]-Piperidide; lactam N-14)" measured_result="0.12 10^-6 cm/sec"
molecule="CC[C@@H]1NC(=O)[C@@H]2CCCN2C(=O)[C@H](CC(C)C)N(C)C(=O)[C@H](C(C)C)NC(=O)[C@H](CC(C)C)N(C)C(=O)[C@H]([C@@H](C)O)NC(=O)[C@H](Cc2ccccc2)N(C)C(=O)CN(C)C(=O)C[C@@H](C)N(C)C(=O)[C@H](C(C)C)NC(=O)[C@H](COC(C)(C)C)NC(=O)[C@H](C)N(C)C(=O)[C@H](CC(C)C)NC(=O)[C@H](Cc2ccccc2)N(C)C1=O [pd067] (cyclo([Abu][NMeF]L[NMeA]S(tBu)V[NMedβ3hAla][Sar][NMeF]T[NMeL]V[NMeL]P))" measured_result="<0.12 10^-6 cm/sec"
